target: Cannabinoid-1 receptor (CB1R) (Rattus norvegicus, UniProt P20272); construct: The tissue obtained from the brain of SD rats was homogenized; from tissue; host or cells: brain of SD rats (membrane pellet of the homogenate); experiment: Cannabinoid-1 receptor (CB1R) binding affinity assay ([3H]CP-55940, rat CB-1 receptor binding protocol); conditions: brain tissue of SD rats, [3H]CP-55940, 30° C. 60 min; read-out: IC50
Sequence (P20272 whole entry): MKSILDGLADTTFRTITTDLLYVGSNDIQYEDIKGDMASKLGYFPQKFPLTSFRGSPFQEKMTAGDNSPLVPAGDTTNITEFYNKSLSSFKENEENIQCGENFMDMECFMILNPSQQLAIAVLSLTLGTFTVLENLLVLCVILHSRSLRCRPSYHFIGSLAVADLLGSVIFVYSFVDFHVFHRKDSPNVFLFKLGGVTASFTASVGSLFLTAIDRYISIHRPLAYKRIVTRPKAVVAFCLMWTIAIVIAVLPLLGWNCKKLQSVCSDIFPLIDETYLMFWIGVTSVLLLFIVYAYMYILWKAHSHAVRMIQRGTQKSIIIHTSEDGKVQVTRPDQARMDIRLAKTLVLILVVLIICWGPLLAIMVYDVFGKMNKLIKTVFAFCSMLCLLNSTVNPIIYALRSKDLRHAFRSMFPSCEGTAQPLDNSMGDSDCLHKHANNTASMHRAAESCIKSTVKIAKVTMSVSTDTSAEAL
pIC50: −log10 of the molar value.
Measurement Name: pIC50

Cc1c(-c2nc(C3CCCCC3)n(C)n2)nn(-c2ccc(Cl)cc2Cl)c1-c1ccc(Cl)cc1 [Example 624]	6.41

(a) Cc1c(-c2nnc(C3(c4ccc(Cl)cc4)CC3)o2)nn(-c2ccc(Cl)cc2)c1-c1ccc(Cl)cc1 [Example 119]
(b) CCn1nc(-c2nn(-c3ccc(Cl)cc3Cl)c(-c3ccc(Cl)cc3)c2C)nc1C1CC1 [Example 629]
Inquiry: Between a and b , whose recorded pIC50 is greater? // return label of chosen record
Reply text: b

---

target: Cannabinoid-1 receptor (CB1R) (Rattus norvegicus); construct: The tissue obtained from the brain of SD rats was homogenized; from tissue; host or cells: brain of SD rats (membrane pellet of the homogenate); experiment: Cannabinoid-1 receptor (CB1R) binding affinity assay ([3H]CP-55940, rat CB-1 receptor binding protocol); conditions: brain tissue of SD rats, [3H]CP-55940, 30° C. 60 min; read-out: IC50
pIC50: −log10 of the molar value.
Measurement Name: pIC50

(I) CC#Cc1c(-c2nnc(C(C)(C)C)o2)nn(-c2ccc(Cl)cc2Cl)c1-c1ccc(Cl)cc1 [Example 261]
(II) CC(C)(C)c1nnc(-c2nn(-c3ccc(Cl)cc3Cl)c(-c3ccc(Br)cc3)c2Cn2ncnn2)o1 [Example 302]
Inquiry: // returns I or II , whichever has the lower pIC50 Please reply using the label of the selected record.
Reply text: I
(I: 7.81, II: 8.19)

---

Recorded measurements of IC50, one per entry
target: Cannabinoid-1 receptor (CB1R) (Rattus norvegicus); construct: The tissue obtained from the brain of SD rats was homogenized; from tissue; host or cells: brain of SD rats (membrane pellet of the homogenate); experiment: Cannabinoid-1 receptor (CB1R) binding affinity assay ([3H]CP-55940, rat CB-1 receptor binding protocol); conditions: IC50(nM), brain tissue of SD rats, [3H]CP-55940, 30° C. 60 min
Report as a plain number; the unit nM is understood.

Consider the reported IC50 for these compounds:
CCc1c(-c2nnc(C3(c4ccccc4)CC3)o2)nn(-c2ccc(Cl)cc2Cl)c1-c1ccc(Br)cc1 [Example 177]	3.01
CC(C)(C)c1nnc(-c2nn(-c3ccc(Cl)cc3Cl)c(-c3ccc(Cl)cc3)c2C2CC2)s1 [Example 441]	29.8
CCCCC(C)c1nnc(-c2nn(-c3ccccc3Cl)c(-c3ccc(Cl)cc3)c2C)s1 (stereo not shown) [Example 411]	13.5
C=C(C)c1c(-c2nnc(C(C)(C)C)o2)nn(-c2ccc(Cl)cc2Cl)c1-c1ccc(Br)cc1 [Example 220]	8.26
CCc1c(-c2nnc(C3(c4ccc(Cl)cc4)CCC3)s2)nn(-c2ccc(Cl)cc2Cl)c1-c1ccc(Cl)cc1 [Example 483]	2.32

# context switch: different compound, same IC50
Inquiry: Fill blank: measured IC50 of the compound Cc1c(-c2nnc(C3CC=CC3)s2)nn(-c2ccc(Cl)cc2Cl)c1-c1ccc(Cl)cc1 [Example 384] is ____.
Reply text: 20.2

---

biological target: Cannabinoid-1 receptor (CB1R) (Rattus norvegicus); construct: The tissue obtained from the brain of SD rats was homogenized; from tissue; host or cells: brain of SD rats (membrane pellet of the homogenate); experiment: Cannabinoid-1 receptor (CB1R) binding affinity assay ([3H]CP-55940, rat CB-1 receptor binding protocol); settings: brain tissue of SD rats, [3H]CP-55940, 30° C. 60 min; read-out: IC50
Measurement Name: IC50 (µM)

Cn1nnnc1Cc1c(-c2nnc(C(C)(C)C)o2)nn(-c2ccc(Cl)cc2Cl)c1-c1ccc(Cl)cc1	0.0148
Cc1c(-c2nnc(C3(C)CC3(Cl)Cl)o2)nn(-c2ccc(Cl)cc2Cl)c1-c1ccc(Cl)cc1 (stereo not shown)	0.0124
CCc1c(-c2nnc(C3(CC)CC3)s2)nn(-c2ccc(Cl)cc2Cl)c1-c1ccc(Br)cc1	0.0198
CC(=O)OCc1c(-c2nnc(C(C)(C)C)o2)nn(-c2ccc(Cl)cc2Cl)c1-c1ccc(Cl)cc1	0.0224
Cc1c(-c2nnc(C(C)(C)Oc3ccccn3)o2)nn(-c2ccc(Cl)cc2Cl)c1-c1ccc(Cl)cc1	0.0361
CC(C)(C)c1nnc(-c2nn(-c3ccc(Cl)cc3Cl)c(-c3ccc(Cl)cc3)c2CO)s1	0.00688

(a) CCc1c(-c2nnc(C(C)(C)C)s2)nn(-c2ccc(Cl)cc2Cl)c1-c1ccc(Br)cc1
(b) Cc1ccc(C2(c3nnc(-c4nn(-c5ccc(Cl)cc5Cl)c(-c5ccc(Cl)cc5)c4Cn4cncn4)s3)CC2)cc1
(c) Cc1c(-c2nnc([C@H]3C[C@H]3C(=O)N3CCCCC3)o2)nn(-c2ccc(Cl)cc2Cl)c1-c1ccc(Cl)cc1
(d) C=CCOCC(C)(C)c1nnc(-c2nn(-c3ccc(Cl)cc3Cl)c(-c3ccc(Cl)cc3)c2C)o1
(e) Clc1ccc(-c2c(Br)c(-c3nnc(C4CCC4)o3)nn2-c2ccc(Cl)cc2Cl)cc1
Inquiry: Hello, I need these entries ordered by IC50, highest reading first. Thanks! Return the labels ranked in the requested order, please.
Reply text: c, e, d, a, b
(c: 0.0673 µM, e: 0.0355 µM, d: 0.0157 µM, a: 0.00957 µM, b: 0.00574 µM)

---

biological target: Cannabinoid-1 receptor (CB1R) (Rattus norvegicus); construct: The tissue obtained from the brain of SD rats was homogenized; from tissue; host or cells: brain of SD rats (membrane pellet of the homogenate); assay: Cannabinoid-1 receptor (CB1R) binding affinity assay ([3H]CP-55940, rat CB-1 receptor binding protocol); details: brain tissue of SD rats, [3H]CP-55940, 30° C. 60 min; read-out: IC50
Measurement Name: IC50 (nM)

(P) CC(C)c1c(-c2nnc(C3(C(F)(F)F)CC3)o2)nn(-c2ccc(Cl)cc2Cl)c1-c1ccc(Cl)cc1
(Q) CC(C)(C)c1nnc(-c2nn(-c3ccc(Cl)cc3Cl)c(-c3ccc(Cl)cc3)c2Cn2cnnn2)o1 [Example 300]
(R) CCCCCCn1nnnc1-c1nn(-c2ccc(Cl)cc2Cl)c(-c2ccc(Cl)cc2)c1C
Inquiry: Hello, I need these entries ordered by IC50, highest reading first. Thanks! To answer, arrange all of the labels according to the requested order.
Reply text: R, P, Q

---

target: Cannabinoid-1 receptor (CB1R) (Rattus norvegicus, UniProt P20272); construct: The tissue obtained from the brain of SD rats was homogenized; from tissue; host or cells: brain of SD rats (membrane pellet of the homogenate); test: Cannabinoid-1 receptor (CB1R) binding affinity assay ([3H]CP-55940, rat CB-1 receptor binding protocol); settings: brain tissue of SD rats, [3H]CP-55940, 30° C. 60 min; read-out: IC50
Measurement Name: IC50 (nM)

Clc1ccc(-c2c(Br)c(-c3nnc(C4CCCCC4)o3)nn2-c2ccc(Cl)cc2Cl)cc1	81.4

(a) Cc1c(-c2nnc(CC3CC3)s2)nn(-c2ccc(Cl)cc2Cl)c1-c1ccc(Cl)cc1
(b) Cc1c(-c2nnnn2Cc2ccoc2)nn(-c2ccc(Cl)cc2Cl)c1-c1ccc(Cl)cc1
Inquiry: Which value of IC50 is greater, the one for a or the one for b ? Your answer should be the label of the entry you select.
Reply text: b

---

compounds and their reported pIC50
biological target: Cannabinoid-1 receptor (CB1R) (Rattus norvegicus); construct: The tissue obtained from the brain of SD rats was homogenized; from tissue; host or cells: brain of SD rats (membrane pellet of the homogenate); test: Cannabinoid-1 receptor (CB1R) binding affinity assay ([3H]CP-55940, rat CB-1 receptor binding protocol); settings: brain tissue of SD rats, [3H]CP-55940, 30° C. 60 min; read-out: IC50
Scale: negative log10 of molar concentration, which is what pIC50 denotes.

Cc1c(-c2nnnn2C2CCCC2)nn(-c2ccc(Cl)cc2Cl)c1-c1ccc(Br)cc1	7.94
CCc1c(-c2nnc(C3CCCC3)s2)nn(-c2ccc(Cl)cc2Cl)c1-c1ccc(Br)cc1	7.73
CC(C)(C)c1nnc(-c2nn(-c3ccc(Cl)cc3Cl)c(-c3ccc(Cl)cc3)c2COc2ccccc2)o1	7.54
Clc1ccc(-c2c(Cn3cncn3)c(-c3nnc(C4(c5ccccc5)CC4)s3)nn2-c2ccc(Cl)cc2Cl)cc1	8.75

# evaluate next
Inquiry: # get_value(readout='pIC50', item= "Cc1c(-c2nnnn2C2CCCC2)nn(-c2ccc(Cl)cc2Cl)c1-c1ccc(Cl)cc1" )
Reply text: 7.58

---

target: Cannabinoid-1 receptor (CB1R) (Rattus norvegicus, UniProt P20272); construct: The tissue obtained from the brain of SD rats was homogenized; from tissue; host or cells: brain of SD rats (membrane pellet of the homogenate); assay: Cannabinoid-1 receptor (CB1R) binding affinity assay ([3H]CP-55940, rat CB-1 receptor binding protocol); conditions: IC50(nM), brain tissue of SD rats, [3H]CP-55940, 30° C. 60 min
Measurement Name: IC50 (nM)
API: value field is a number in nM; no unit string.

CCCC(C)c1nnc(-c2nn(-c3ccc(Cl)cc3Cl)c(-c3ccc(Cl)cc3)c2CC)s1 (stereo not shown)	11
CCOC(C)(C)c1nnc(-c2nn(-c3ccc(Cl)cc3Cl)c(-c3ccc(Cl)cc3)c2C)o1	23.9
CCCCCOC(C)(C)c1nnc(-c2nn(-c3ccc(Cl)cc3Cl)c(-c3ccc(Cl)cc3)c2C)s1	13.7
CCCCOC(C)(C)c1nnc(-c2nn(-c3ccc(Cl)cc3Cl)c(-c3ccc(Cl)cc3)c2C)o1	9.78
CCc1c(-c2nnc(C3(c4cccc(Cl)c4)CC3)o2)nn(-c2ccc(Cl)cc2Cl)c1-c1ccc(Br)cc1	2.32
CC(=O)OCc1c(-c2nnc(C3(c4ccc(Cl)cc4)CC3)o2)nn(-c2ccc(Cl)cc2Cl)c1-c1ccc(Cl)cc1	7.07

Inquiry: Would you kindly share the measured IC50 for COC(=O)NC(C)c1c(-c2nnc(C(C)(C)C)s2)nn(-c2ccc(Cl)cc2Cl)c1-c1ccc(Br)cc1 (stereo not shown) ?
Reply text: 8.75

Inquiry: // same read-out, input: "Cc1c(-c2ncc(C(C)(C)C)o2)nn(-c2ccc(Cl)cc2Cl)c1-c1ccc(Cl)cc1"
Reply text: 14.2

Inquiry: Try this compound too: "CCc1c(-c2nnc(C3(CC)CC3)o2)nn(-c2ccc(Cl)cc2Cl)c1-c1ccc(Br)cc1"
Reply text: 12.8

Inquiry: Next record, please: CC(F)c1c(-c2nnc(C(C)(C)C)s2)nn(-c2ccc(Cl)cc2Cl)c1-c1ccc(Br)cc1 (stereo not shown)
Reply text: 11.8
